Target: Glucocorticoid Receptor (GR) (Homo sapiens, UniProt P04150)
Construct: A GAL4-responsive firefly luciferase reporter is the read-out; Some cells also express CD40, which is irrelevant for the free small molecules
Sequence (P04150 524-777 limits assumed): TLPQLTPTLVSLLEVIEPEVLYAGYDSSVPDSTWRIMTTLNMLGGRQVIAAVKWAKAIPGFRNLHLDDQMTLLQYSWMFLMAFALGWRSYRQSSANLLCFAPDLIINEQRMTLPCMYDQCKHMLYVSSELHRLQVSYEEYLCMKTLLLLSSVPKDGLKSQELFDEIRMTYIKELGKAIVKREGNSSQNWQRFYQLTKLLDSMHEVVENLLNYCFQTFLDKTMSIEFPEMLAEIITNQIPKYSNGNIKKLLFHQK
Test: GR reporter assay (GR-GAL4 Reporter (Luc)-HEK293 cells, Steady-Glo luciferase)
Settings: 24 hours, read-out: GR reporter agonist
Checkbox rule: EC50 lower than 9 nM = T; EC50 not lower than 9 nM = F.

Cn1nccc1[C@@H]1O[C@@H]2C[C@H]3[C@@H]4CCC5=CC(=O)C=C[C@]5(C)[C@H]4[C@@H](O)C[C@]3(C)[C@]2(C(=O)CO)O1 | F
C[C@]12C=CC(=O)C=C1[C@@H](F)C[C@H]1[C@@H]3C[C@H]4O[C@@H](c5ccc(Oc6ccccc6)c(F)c5)O[C@@]4(C(=O)CO)[C@@]3(C)C[C@H](O)[C@@]12F | T
C[C@]12C=CC(=O)C=C1[C@@H](F)C[C@H]1[C@@H]3C[C@H]4O[C@@H](C#Cc5ccccc5)O[C@@]4(C(=O)CO)[C@@]3(C)C[C@H](O)[C@@]12F | F
C[C@]12C=CC(=O)C=C1CC[C@@H]1[C@@H]2[C@@H](O)C[C@@]2(C)[C@H]1C[C@H]1O[C@@H](c3ccc4c(c3)OCCO4)O[C@]12C(=O)CO | F
C[C@]12C=CC(=O)C=C1[C@@H](F)C[C@H]1[C@@H]3C[C@H]4O[C@@H](c5cc6c(s5)CCCC6)O[C@@]4(C(=O)CO)[C@@]3(C)C[C@H](O)[C@@]12F | T

Please find the next compound below.
Incoming: Report whether reported EC50 is lower than 9 nM (strictly) for C[C@]12C=CC(=O)C=C1[C@@H](F)C[C@H]1[C@@H]3C[C@H]4O[C@@H](c5ccc(OCC(F)(F)CN)c(F)c5)O[C@@]4(C(=O)CO)[C@@]3(C)C[C@H](O)[C@@]12F
Outgoing: F

* * *

Recorded measurements of log10 of EC50, one per entry
Target: Glucocorticoid Receptor (GR) (Homo sapiens, UniProt P04150)
Construct: A GAL4-responsive firefly luciferase reporter is the read-out; Some cells also express CD40, which is irrelevant for the free small molecules
Test: GR reporter assay (GR-GAL4 Reporter (Luc)-HEK293 cells, Steady-Glo luciferase)
Settings: 24 hours, read-out: GR reporter agonist
On a log10 scale: recorded EC50, unit nM.

C[C@]12C=CC(=O)C=C1CC[C@H]1[C@@H]3C[C@H]4O[C@@H](c5ccccc5)O[C@@]4(C(=O)CO)[C@@]3(C)C[C@H](O)[C@@]12F | 0.04
C[C@]12C=CC(=O)C=C1[C@@H](F)C[C@H]1[C@@H]3C[C@H]4O[C@@H](c5cccc(F)c5)O[C@@]4(C(=O)CN)[C@@]3(C)C[C@H](O)[C@@]12F | 1.59
C[C@@H](c1ccccc1)[C@@H]1O[C@@H]2C[C@H]3[C@@H]4C[C@H](F)C5=CC(=O)C=C[C@]5(C)[C@@]4(F)[C@@H](O)C[C@]3(C)[C@]2(C(=O)CO)O1 | 1.36
C[C@]12C=CC(=O)C=C1CC[C@@H]1[C@@H]2[C@@H](O)C[C@@]2(C)[C@H]1C[C@H]1O[C@@H](c3sccc3F)O[C@]12C(=O)CO [Compound 53a] | -0.05

Consider the additional compound presented here.
Incoming: Param readout= log10 of EC50; system= Glucocorticoid Receptor (GR) (Homo sapiens, UniProt P04150); entry= C[C@]12C=CC(=O)C=C1[C@@H](F)C[C@H]1[C@@H]3C[C@H]4O[C@@H](C5CC6(CCOCC6)C5)O[C@@]4(C(=O)CO)[C@@]3(C)C[C@H](O)[C@@]12F ; returns value.
Outgoing: 0.95
